Target: Serine/threonine-protein phosphatase 5 (Homo sapiens) (UniProt P53041)
Sequence (P53041 whole entry, looked up): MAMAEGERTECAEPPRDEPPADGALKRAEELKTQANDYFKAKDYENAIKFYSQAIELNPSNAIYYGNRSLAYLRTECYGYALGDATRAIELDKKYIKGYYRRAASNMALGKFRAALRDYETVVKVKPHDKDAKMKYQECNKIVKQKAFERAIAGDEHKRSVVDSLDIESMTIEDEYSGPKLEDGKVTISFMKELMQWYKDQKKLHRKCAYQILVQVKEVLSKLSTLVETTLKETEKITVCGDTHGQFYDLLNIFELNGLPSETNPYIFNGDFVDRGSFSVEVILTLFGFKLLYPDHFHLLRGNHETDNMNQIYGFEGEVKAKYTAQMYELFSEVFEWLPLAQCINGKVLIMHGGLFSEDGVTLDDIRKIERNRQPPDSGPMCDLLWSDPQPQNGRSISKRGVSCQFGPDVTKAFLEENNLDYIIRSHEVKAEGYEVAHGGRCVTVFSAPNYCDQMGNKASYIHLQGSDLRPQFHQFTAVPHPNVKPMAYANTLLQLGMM
Assay: PP5 phosphatase inhibitors, primary screen, biochemical, fluorescence (AID 1987);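 note: 0% = DMSO only and 100% = 100 µM cantharidin control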
Details: purified PP5c, OMFP substrate fluorescence; at 6.7 µM; hits give high values
Among all 320,000 compounds or so, about 560 (0.17%) were called active. The list comes from a sample in which actives are over-represented; it also holds close analogues and randomly drawn compounds.
MEASURED METRIC: inhibition (%)
Answers are plain numbers, in %.

Recorded inhibition, per entry:
Ask: Report inhibition on Serine/threonine-protein phosphatase 5 (Homo sapiens) (UniProt P53041) for this entry: Oc1c(C(c2ccccn2)N2CCOCC2)ccc2cccnc12 (stereo unspecified)
Reply: 11.2

Ask: Enter inhibition (test system Serine/threonine-protein phosphatase 5 (Homo sapiens) (UniProt P53041)) for CC(C)(C)n1nc2c(c1NC(=O)c1ccc(S(=O)(=O)N3CCCC3)cc1)CS(=O)C2 (stereo unspecified)
Reply: -2.2

Ask: Please respond with reported inhibition (system Serine/threonine-protein phosphatase 5 (Homo sapiens) (UniProt P53041)) for COc1cc(C(=O)Nn2c(O)c(C3=c4ccccc4=NC3=O)sc2=S)ccc1O .
Reply: -1.88

Please supply inhibition for each of the following items, keeping them in order.
1. C=CCN1CCN(C(=O)CCCc2ccccc2)CC1
2. CC(=O)c1c(C)[nH]c(C(=O)Nc2cc(S(=O)(=O)N(C)C)ccc2C)c1C
3. Cc1cccc(N(C(=O)c2csnn2)C(C(=O)NCc2ccccc2)c2ccncc2)c1 (stereo unspecified)
4. CCOC(=O)c1cnc(COc2ccccc2Cl)[nH]c1=O
5. O=C1Oc2ccccc2C(=O)/C1=C/c1ccccc1O
6. CCCCN(CCCC)CCCNC(=O)CN1C(=O)COc2ccc(S(=O)(=O)N3CCC(C)CC3)cc21
7. CN(CC(=O)NCc1ccc(Cl)cc1)S(=O)(=O)c1cccs1
8. COc1cccc(OCc2nnc3n2N=C(c2ccccc2)C(CC(=O)O)S3)c1 (stereo unspecified)

Reply:
1: 2.37; 2: 3.8; 3: 1.82; 4: -1.14; 5: 4.64; 6: -1.56; 7: 3.27; 8: -0.47

----------
Target: Serine/threonine-protein phosphatase 5 (Homo sapiens) (UniProt P53041)
Assay: PP5 phosphatase inhibitors, primary screen, biochemical, fluorescence (AID 1987);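 note: 0% = DMSO only and 100% = 100 µM cantharidin control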
Settings: purified PP5c, OMFP substrate fluorescence; at 6.7 µM; hits give high values
Among all 320,000 compounds or so, about 560 (0.17%) were called active. The sample holds actives, similar compounds and a random draw of the others, so the mix is not that of the screen.
MEASURED METRIC: inhibition (%)
Give bare numbers, in %.

Parameter requested: inhibition. Apply to each item below.
1. Nc1ccc(C(=O)Nc2ccccc2N)cc1
2. O=S1(=O)CC/C(=N\Nc2ccc(F)cc2)c2ccsc21
3. CCOC(=O)c1c(NC(=O)C2CCN(S(=O)(=O)c3ccc(Cl)cc3)CC2)sc2c1CCCC2
4. CN(C(=O)Nc1ccc(Cl)cc1)n1cnc2ccccc2c1=O
5. CCOC(=O)Nc1ccc2c(c1)N(C(=O)CCN1CCN(CCO)CC1)c1ccccc1CC2
6. CCc1nnc(NC(=O)c2cc(S(=O)(=O)N3CCCCC3)ccc2C)s1
7. O=C1C(C=NCC2CCCO2)=C(O)c2ccccc21 (configuration not stated)

Reply:
1. -0.77
2. 1.6
3. 0.34
4. -2.44
5. 2.46
6. 3.35
7. 2.92

For each of the compounds below, note its inhibition.
1. CC(C)OC(=O)c1c(NC(=O)c2ccco2)sc2c1CCCC2
2. O=C(OCc1cn(-c2ccc(Cl)c(Cl)c2)nn1)c1ccccc1Cl
3. CN(C)c1ccc(C(CC(=O)O)C(=O)O)cc1 (configuration not stated)

Reply:
1.48
1.67
0.86

Quick one: give me inhibition for each item below, same order please.
1. COC(=O)c1cc(NC(=O)C2C3C=CC(C3)C2C(=O)O)cc(C(=O)OC)c1 (configuration not stated)
2. COc1ccc(S(=O)(=O)N2CCOCC2)cc1NC(=O)CC1CC2CCC1C2 (configuration not stated)
3. O=C(O)c1cccc2c1C(=O)N(C1CCCCC1)C2
4. COc1ccc(CNC(=O)C2(CC3CC(c4ccccc4)=NO3)CCN(C(=O)c3cccc(O)c3)CC2)cc1 (configuration not stated)
5. NCCCC[C@@H]1NC(=O)[C@H](CCC(=O)O)NC(=O)c2cc([N+](=O)[O-])cc(I)c2NCC[C@@H](C(N)=O)NC1=O
6. CC(C)COC(=O)c1ccc(NC(=O)C2C3C=CC(C3)C2C(=O)O)cc1 (configuration not stated)
7. COCC1CCN(C(=O)c2ccc3oc(Cc4ccccc4)nc3c2)C1 (configuration not stated)

Reply:
[1.39, -2.65, 1.97, 0.71, 4.27, 1.86, 2.88]

Numbers sourced from PubChem BioAssay AID1987.
